Data provenance: the supplement of paper PMC11208160

assay: recombinant barcode read abundance after kanamycin selection (control-corrected) (log10(CPM+1)); higher = more efficient recombination; sequences stand for … in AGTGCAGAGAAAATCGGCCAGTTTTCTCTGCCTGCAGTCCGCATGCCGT…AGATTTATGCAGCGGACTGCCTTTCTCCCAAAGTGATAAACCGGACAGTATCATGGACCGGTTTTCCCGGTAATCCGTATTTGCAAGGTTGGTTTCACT; site = the 11-nt target;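 note: IS621 recombinase and bridge RNA in Escherichia coli cells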
reportedProperty: recombinant barcode read abundance (log10)
Note: the reply should be a number with no unit written.

Exam item: Which recombinant barcode read abundance (log10) is reported for this sequence? TTACAATCTTGGGTTCTAACCTGTTGCCT (site ATACAATCTAG)
Marked response: 0.31

Exam item: Also CTGCACTCTTGGGTTCTAACCTGTTGCCA (site CTGTACTCTAG) , if possible.
Marked response: 0.28

Exam item: Note, next up: TCCAACCCTTGGGTTCTAACCTGTTGCAG (site TCCAACCCTCT)
Marked response: 1.69

Exam item: Now consider CTGAAGCCTTGGGTTCTAACCTGTTGCCT (site TTGAAGCCTAG) .
Marked response: 0.409

Exam item: Follow-up item: TCACATTCTTGGGTTCTAACCTGTTGCCT (site TCAAATTCTAG)
Marked response: 0.228

Exam item: Moving on to CTACTAACTTGGGTTCTAACCTGTTGCGT (site CTACTAACTAA)
Marked response: 0.13

Exam item: Moving on to CAGGCGACTTGGGTTCTAACCTGTTGCCT (site CAGGCGACTAG)
Marked response: 0.0758

Exam item: Record: CTTCGACCTTGGGTTCTAACCTGTTGCAT (site CTTGGACCTCT)
Marked response: 0.0729

Exam item: Again, but for ACTTAGTCTTGGGTTCTAACCTGTTGCTC (site ACTTAGTCTGA)
Marked response: 1.04

Exam item: Another sequence: GTGTCACCTTGGGTTCTAACCTGTTGCCT (site GTGTCAACTAG)
Marked response: 0.205

Exam item: Param item: TAGTGCTCTTGGGTTCTAACCTGTTGCCT (site TAGTGCTCTGG)
Marked response: 0.157

Exam item: And ATAGCTACTTGGGTTCTAACCTGTTGCCT (site ATAGCCACTAG) ?
Marked response: 0.248

Exam item: Another sequence to check: CAATCTGCTTGGGTTCTAACCTGTTGCCT (site CAATCTGCTAG)
Marked response: 0.233

Exam item: What would you report for GCAATTGCTTGGGTTCTAACCTGTTGCCT (site AAGTCGTCTTA) ?
Marked response: 0.19

Exam item: Now try CGAACTACTTGGGTTCTAACCTGTTGCCT (site CGAACTACTAT) .
Marked response: 0.316

Exam item: # repeat for AATCGCACTTGGGTTCTAACCTGTTGCCT (site AATCGCACTAG)
Marked response: 0.216

Exam item: Thanks! And GTGTGTCCTTGGGTTCTAACCTGTTGCCT (site GTGTGTTCTAG) ?
Marked response: 0.108

Exam item: Record: CCTTGTTCTTGGGTTCTAACCTGTTGCTA (site CCTTGTTCTTA)
Marked response: 0.113

Exam item: What would you report for CCGGATGCTTGGGTTCTAACCTGTTGCCT (site CCGCATGCTAG) ?
Marked response: 0.117

Exam item: Okay, and TACAATTCTTGGGTTCTAACCTGTTGCAT (site TACAATTCTAT) ?
Marked response: 0.03

Exam item: Ok, now GCGACTCCTTGGGTTCTAACCTGTTGCCT (site GCGACTCCTAG)
Marked response: 0.699
